target: SARS-CoV-2 full length spike protein, V367F mutant, expressed on CHO cells (SARS-CoV-2, UniProt P0DTC2 14-1273)
Form field: median fluorescence fold over isotype control (one value per entry).
PROPERTY_LABEL: median fluorescence fold over isotype control (fold over isotype)

[[record]]
binder = "antibody 370 (antibody, V domains shown) VH: QVQLVESGGGVVPPGRSLSLPCAASGFTFSAYAMHWLRQAPGKGLEWVAVISYDGTVKYVADSVRGRFTISRDNSNNTLYLQMTSLRSDDTAVYYCARDLGALAAAPTVYFVHWGQGTLVTVSS VL: SYVLTQPPSVSVAPGKTATITCAGEDIGRKSVHWYQQKPGQAPVLVIFYYSDRPSGIPDRFSGSVSGNTATLTIGRVEAGDEADYFCQVWDRTTNHVIFGGGTKVTVL"
meas_value = 35.3

[[record]]
binder = "antibody 399 (antibody, V domains shown) VH: QVQLVQSGAEVKKPGASVKVSCKASGYTFTSYGISWVRQAPGQGLEWMGWISAYNGNTNYAQKLQGRVTMTTDTSTSTAYMELRSLRSDDTAVYYCARDSGYDWAGGHYYYYGMDVWGQGTTVTVSS VL: QSALTQPASVSGSPGQSITISCTGTSSDVGGYNYVSWYQQHPGKAPKLMIYEVSNRPSGVSNRFSGSKSGNTASLTISGLQAEDEADYYCSSYTSSSTLVVFGGGTKLTVL"
meas_value = 30.6

[[record]]
binder = "antibody 387 (antibody, V domains shown) VH: QVQLVESGGGVVQPGRSLRLSCAASGFTFSSYGMHWVRQAPGKGLEWVAVISYDGSNKYYADSVKGRFTISRDNSKNTLYLQMNSLRAEDTAVYYCAKDDTKNYGDLDIDYWGQGTLVTVSS VL: SYELTQPSSVSVSPGQTARITCSGDVLAKKYARWFQQKPGQAPVLVIYKDSERPSGIPERFSGSSSGTTVTLTISGAQVEDEADYYCYSAADNNLGVFGGGTKLTVL"
meas_value = 6.69

